Origin of the recorded values: ChEMBL document CHEMBL3286203

tested on: RXF 393; assay: Cytotoxicity against human RXF393 cells assessed as growth inhibition at 10 uM after 48 hrs by SRB assay; assay type: functional, cell-based
Active and inactive are the calls of the source. No cut-off for these calls is given here.
Classes used: t for active, f for inactive

{"columns": ["structure", "class.assignment"],
 "data": [
  ["CC1(C)OB(c2ccc(N(CCCl)CCCl)cc2)OC1(C)C", "t"],
  ["CC1(C)OB(c2ccc(N(CCBr)CCBr)cc2)OC1(C)C", "t"],
  ["CC1(C)OB(c2ccc(N(CCBr)CCOS(C)(=O)=O)cc2)OC1(C)C", "t"],
  ["CC1(C)OB(c2ccc(N(CCCl)CCOS(C)(=O)=O)cc2)OC1(C)C", "t"],
  ["CC1(C)OB(c2ccc(COC(=O)N(CCCl)CCCl)cc2)OC1(C)C", "f"],
  ["CC1(C)OB(c2ccc(N(CCCl)CCBr)cc2)OC1(C)C", "t"]
]}

----------
assay: 1-Octanol-PBS partition coefficient, log P of the compound; format: physicochemical

{"columns": ["structure", "logP"],
 "data": [
  ["CC1(C)OB(c2ccc(N(CCCl)CCCl)cc2)OC1(C)C", 2.8]
]}

----------
test system: SK-MEL-28; assay: Cytotoxicity against human SK-MEL-28 cells assessed as growth inhibition at 10 uM after 48 hrs by SRB assay; format: functional, cell-based
Activity calls are given as the source filed them. The calls are words filed in the database; no cut-off is given here.
Classes used: active, inactive

{"columns": ["structure", "test.system", "class.assignment"],
 "data": [
  ["CC1(C)OB(c2ccc(N(CCCl)CCCl)cc2)OC1(C)C", "SK-MEL-28", "active"],
  ["CC1(C)OB(c2ccc(N(CCBr)CCOS(C)(=O)=O)cc2)OC1(C)C", "SK-MEL-28", "active"],
  ["CC1(C)OB(c2ccc(N(CCCl)CCBr)cc2)OC1(C)C", "SK-MEL-28", "active"],
  ["CC1(C)OB(c2ccc(N(CCBr)CCBr)cc2)OC1(C)C", "SK-MEL-28", "active"],
  ["CC1(C)OB(c2ccc(N(CCCl)CCOS(C)(=O)=O)cc2)OC1(C)C", "SK-MEL-28", "active"],
  ["CC1(C)OB(c2ccc(COC(=O)N(CCCl)CCCl)cc2)OC1(C)C", "SK-MEL-28", "inactive"]
]}

----------
tested on: OVCAR-5; experiment: Cytotoxicity against human OVCAR5 cells assessed as growth inhibition at 10 uM after 48 hrs by SRB assay; type: functional, cell-based
Activity calls are given as the source filed them. The calls are words filed in the database; no cut-off is given here.
Classes used: active, inactive

{"columns": ["structure", "class.assignment"],
 "data": [
  ["CC1(C)OB(c2ccc(COC(=O)N(CCCl)CCCl)cc2)OC1(C)C", "inactive"],
  ["CC1(C)OB(c2ccc(N(CCBr)CCOS(C)(=O)=O)cc2)OC1(C)C", "active"],
  ["CC1(C)OB(c2ccc(N(CCCl)CCBr)cc2)OC1(C)C", "active"],
  ["CC1(C)OB(c2ccc(N(CCCl)CCCl)cc2)OC1(C)C", "active"],
  ["CC1(C)OB(c2ccc(N(CCBr)CCBr)cc2)OC1(C)C", "active"],
  ["CC1(C)OB(c2ccc(N(CCCl)CCOS(C)(=O)=O)cc2)OC1(C)C", "active"]
]}

----------
test system: MDA-MB-435; assay: Cytotoxicity against human MDA-MB-435 cells assessed as growth inhibition at 10 uM after 48 hrs by SRB assay; type: functional, cell-based
The source made the active and inactive calls. The calls are words filed in the database; no cut-off is given here.
Classes used: True = active, False = inactive

{"columns": ["structure", "class.assignment"],
 "data": [
  ["CC1(C)OB(c2ccc(N(CCCl)CCCl)cc2)OC1(C)C", "True"],
  ["CC1(C)OB(c2ccc(N(CCCl)CCBr)cc2)OC1(C)C", "True"],
  ["CC1(C)OB(c2ccc(N(CCBr)CCOS(C)(=O)=O)cc2)OC1(C)C", "True"],
  ["CC1(C)OB(c2ccc(COC(=O)N(CCCl)CCCl)cc2)OC1(C)C", "False"],
  ["CC1(C)OB(c2ccc(N(CCBr)CCBr)cc2)OC1(C)C", "True"],
  ["CC1(C)OB(c2ccc(N(CCCl)CCOS(C)(=O)=O)cc2)OC1(C)C", "True"]
]}

----------
system: HOP-92; assay: Cytotoxicity against human HOP92 cells assessed as growth inhibition at 10 uM after 48 hrs by SRB assay; format: functional, cell-based
The source made the active and inactive calls. The calls are words filed in the database; no cut-off is given here.
Classes used: YES for active, NO for inactive

{"columns": ["structure", "test.system", "class.assignment"],
 "data": [
  ["CC1(C)OB(c2ccc(COC(=O)N(CCCl)CCCl)cc2)OC1(C)C", "HOP-92", "NO"],
  ["CC1(C)OB(c2ccc(N(CCCl)CCBr)cc2)OC1(C)C", "HOP-92", "YES"],
  ["CC1(C)OB(c2ccc(N(CCBr)CCOS(C)(=O)=O)cc2)OC1(C)C", "HOP-92", "YES"],
  ["CC1(C)OB(c2ccc(N(CCCl)CCCl)cc2)OC1(C)C", "HOP-92", "YES"],
  ["CC1(C)OB(c2ccc(N(CCBr)CCBr)cc2)OC1(C)C", "HOP-92", "YES"],
  ["CC1(C)OB(c2ccc(N(CCCl)CCOS(C)(=O)=O)cc2)OC1(C)C", "HOP-92", "YES"]
]}

----------
test system: NCI-H522; assay: Cytotoxicity against human NCI-H522 cells assessed as growth inhibition at 10 uM after 48 hrs by SRB assay; format: functional, cell-based
Active and inactive are the calls of the source. The calls are words filed in the database; no cut-off is given here.
Classes used: true for active, false for inactive

{"columns": ["structure", "class.assignment"],
 "data": [
  ["CC1(C)OB(c2ccc(N(CCBr)CCOS(C)(=O)=O)cc2)OC1(C)C", "true"],
  ["CC1(C)OB(c2ccc(N(CCCl)CCCl)cc2)OC1(C)C", "true"],
  ["CC1(C)OB(c2ccc(COC(=O)N(CCCl)CCCl)cc2)OC1(C)C", "false"],
  ["CC1(C)OB(c2ccc(N(CCCl)CCOS(C)(=O)=O)cc2)OC1(C)C", "true"],
  ["CC1(C)OB(c2ccc(N(CCBr)CCBr)cc2)OC1(C)C", "true"],
  ["CC1(C)OB(c2ccc(N(CCCl)CCBr)cc2)OC1(C)C", "true"]
]}

----------
system: SF-539; experiment: Cytotoxicity against human SF539 cells assessed as growth inhibition at 10 uM after 48 hrs by SRB assay; type: functional, cell-based
Active and inactive are the calls of the source. The calls are words filed in the database; no cut-off is given here.
outcome.measure: growth inhibition (GI)

{"columns": ["structure", "result"],
 "data": [
  ["CC1(C)OB(c2ccc(N(CCCl)CCBr)cc2)OC1(C)C", "Active"],
  ["CC1(C)OB(c2ccc(N(CCBr)CCOS(C)(=O)=O)cc2)OC1(C)C", "Active"],
  ["CC1(C)OB(c2ccc(N(CCCl)CCOS(C)(=O)=O)cc2)OC1(C)C", "Active"],
  ["CC1(C)OB(c2ccc(N(CCCl)CCCl)cc2)OC1(C)C", "Active"],
  ["CC1(C)OB(c2ccc(N(CCBr)CCBr)cc2)OC1(C)C", "Active"]
]}

----------
test system: HCC 2998; assay: Cytotoxicity against human HCC2998 cells assessed as growth inhibition at 10 uM after 48 hrs by SRB assay; format: functional, cell-based
Active and inactive are the calls of the source. No cut-off for these calls is given here.
Classes used: active, inactive

{"columns": ["structure", "test.system", "class.assignment"],
 "data": [
  ["CC1(C)OB(c2ccc(N(CCCl)CCCl)cc2)OC1(C)C", "HCC 2998", "active"],
  ["CC1(C)OB(c2ccc(N(CCBr)CCOS(C)(=O)=O)cc2)OC1(C)C", "HCC 2998", "active"],
  ["CC1(C)OB(c2ccc(N(CCCl)CCOS(C)(=O)=O)cc2)OC1(C)C", "HCC 2998", "active"],
  ["CC1(C)OB(c2ccc(N(CCBr)CCBr)cc2)OC1(C)C", "HCC 2998", "active"],
  ["CC1(C)OB(c2ccc(COC(=O)N(CCCl)CCCl)cc2)OC1(C)C", "HCC 2998", "inactive"],
  ["CC1(C)OB(c2ccc(N(CCCl)CCBr)cc2)OC1(C)C", "HCC 2998", "active"]
]}

----------
tested on: SK-MEL-2; assay: Cytotoxicity against human SK-MEL-2 cells assessed as growth inhibition at 10 uM after 48 hrs by SRB assay; assay type: functional, cell-based
Activity calls are given as the source filed them. No cut-off for these calls is given here.
Classes used: label 1 (active), label 0 (inactive)

{"columns": ["structure", "class.assignment"],
 "data": [
  ["CC1(C)OB(c2ccc(N(CCBr)CCBr)cc2)OC1(C)C", "label 1"],
  ["CC1(C)OB(c2ccc(COC(=O)N(CCCl)CCCl)cc2)OC1(C)C", "label 0"],
  ["CC1(C)OB(c2ccc(N(CCCl)CCOS(C)(=O)=O)cc2)OC1(C)C", "label 1"],
  ["CC1(C)OB(c2ccc(N(CCCl)CCCl)cc2)OC1(C)C", "label 1"],
  ["CC1(C)OB(c2ccc(N(CCCl)CCBr)cc2)OC1(C)C", "label 1"],
  ["CC1(C)OB(c2ccc(N(CCBr)CCOS(C)(=O)=O)cc2)OC1(C)C", "label 1"]
]}
